Test system: NCI-H522 lung
Assay: NCI tumour cell line growth inhibition, 48 h
Measure name: TGI

C=C1C(O)C2C(=C(CC(C)C)C13CC3)C(=O)C(C)(C)C2O (configuration not stated) = > 100 µM
CCOC(=O)C1CSCCSC1 = > 100 µM
Cc1cccc(C)c1NC(=O)CCC(=O)NNc1nnc(C)n1N = > 100 µM
NC(CCCCO)C(=O)O (configuration not stated) = > 100 µM
CC(C#N)NCc1ccc(C(C)NC(C)C#N)cc1 (configuration not stated) = > 100 µM
COc1cc(C(=O)Nc2cccc3ccccc23)c(Br)c(OC)c1OC = > 100 µM

TGI reading for CNc1ccccc1S(=O)(=O)c1ccccc1[N+](=O)[O-] : > 100 µM
